Listed here: items and their measured pIC50.
# System: Human immunodeficiency virus 1
# METHOD NOTES: Antiviral activity against R5 tropic HIV1 YTA infected in human TZM-bl cells assessed as beta-galactosidase activity preincubated for 15 mins before infection measured after 2 days by single-round assay using luminometry
# Type: functional, organism-based
# CONDITION SET: Human immunodeficiency virus 1, YTA
Please express pIC50 as -log10 of the molar concentration.

Field: example entries. Status: answers known.
# COMPOUND, pIC50
records = [
    ("O=C(NCCc1ccccn1)C(=O)Nc1ccc(Cl)cc1", 4.70),
    ("N=C(N)N1CCC(NC(=O)C(=O)Nc2ccc(Cl)cc2)CC1.O=C(O)C(F)(F)F", 5.21),
    ("NC(=S)N1CCC(NC(=O)C(=O)Nc2ccc(Cl)cc2)CC1", 5.26),
]

// query pIC50 value for entry O=C(Nc1ccc(Cl)cc1)C(=O)NC1CC2(CCCCC2)NC2(CCCCC2)C1 (stereo unspecified)
6.17
